In this section we review reported TGI values for a set of molecules.
System: SR leukemia
TEST DETAILS: NCI tumour cell line growth inhibition, 48 h
PARAMETER MEASURED: TGI (µM)

                                    molecule  parameter_measured  limit_qualifier  reading
 0  O=C(Nc1nc2c(s1)CCc1c-2c(Br)n(Cc2ccccc2)c1Br)c1ccccc1                 TGI                >      100
 1  CC(=O)OC1COC(Oc2c(C)c3c4c(c2O)[C@@H](C)CC[C@@H]4[C@@H](C)C[C@H]3C=C(C)C)C(O)C1O (stereo partly drawn)                 TGI                =     25.7
 2  O=CC(O)C(O)C(OC1OC(CO)C(O)C(O)C1O)C(O)CO (stereo not drawn) (tested in a mixture with another compound)                 TGI                =     33.1
 3  Oc1ccc(-c2[nH]c3ccccc3c2-c2nc3ccccc3o2)cc1                 TGI                =     25.7
 4  O=C1CC(=O)NC(=NN2C(=O)/C(=C/c3ccc(Cl)cc3)N=C2c2ccccc2)N1                 TGI                =     21.3
 5  CCCC(=O)OC1C(C2COC(C)(C)O2)OC2OC(C)(C)OC21 (stereo not drawn)                 TGI                >      100
 6  Cn1c(SCc2c[nH]c3ccccc23)nnc1-c1ccc(Cl)cc1Cl                 TGI                =     16.6
 7  Nc1nc2c(c(=O)[nH]1)NC(CCNc1ccc(C(=O)O)cc1)CN2 (stereo not drawn)                 TGI                >      100
 8  CN1CC[C@]23c4c5ccc(O)c4OC2c2[nH]ncc2C[C@H]3[C@H]1C5 (stereo partly drawn)                 TGI                >      100
 9  CC(C)c1cc(C(C)C)c(Cl)c(Cl)c1O (tested in a mixture with another compound)                 TGI                =     63.4
10  CCN(CCCl)c1cc(CN(C)C)cc(NC(=O)c2cc(C(=O)Nc3cc(CN(C)C)cc(N(CC)CCCl)c3)n(C)n2)c1                 TGI                >      100
11   CN(C)CCNC(=O)c1cccc2cc3ccc4ccccc4c3nc12                 TGI                =    0.147
12           O=C(Nc1ccc(Br)cc1)Nc1cccc(Br)c1                 TGI                >      100
13            Nc1c(C(=O)c2ccccc2)nnc2ccccc12                 TGI                >      100
14         O=C(/C=C/c1ccc(Cl)cc1)c1ccc(Cl)s1                 TGI                >      100
15              O=c1[nH]nc(Cc2ccccc2)n1C1CC1                 TGI                >      100
16  CC(=O)O[C@H]1C[C@H]2[C@@H]([C@H](OC(C)=O)C[C@@H]3CC4(CC[C@@]32C)OOC2(CCCCC2)OO4)[C@@H]2CC[C@H]([C@H](C)CCC(=O)O)[C@@]12C                 TGI                =      8.3
17   CCN(CC)Cc1ccc(Nc2c3ccccc3nc3ccccc23)cc1                 TGI                =     22.2
18  Cc1cc(-c2ccco2)cc(C)c1/C=C/c1cncc(-c2nn[nH]n2)c1                 TGI                >       25
19  CC1(C)CC(O)CC(C)(C)N1.CC1(C)CC(O)CC(C)(C)N1.CC1(C)CC(O)CC(C)(C)N1.CC1(C)CC(O)CC(C)(C)N1.Cl.[Ti]                 TGI                >      100
20             Cn1cnnc1SC(F)(F)c1nc2ccccc2o1                 TGI                >      100
21  O=C1Nc2ccccc2C1S(=O)(=O)c1ccccc1 (stereo not drawn)                 TGI                >      100
22             O=C1c2ccoc2C(=O)c2oc(=O)ccc21                 TGI                =     3.83

* * *

TGI listing for selected compounds.
Tested on: TK-10 renal
TEST DETAILS: NCI tumour cell line growth inhibition, 48 h
PARAMETER MEASURED: TGI

                                   compound  parameter_measured   reading
0  O=C1c2ccccc2-c2c1c1ccc([N+](=O)[O-])cc1c(=O)n2CCCCl                 TGI  > 100 µM
1   N=C(N)c1ccc(N=Nc2c(O)ccc3cc(O)ccc23)cc1                 TGI  > 100 µM
2  Cn1c(=O)n2n(c1=O)C(S(=O)c1ccccc1)C2 (stereo unspecified)                 TGI  > 100 µM
3  COC(=O)[C@]1(C)CCCC2(C)C3=C(CCC21)CC1(CC3)SCCS1 (stereo partly specified)                 TGI   > 10 µM
4     Cc1ccc(-c2nc(C(Cl)Cl)nc3cc(C)nn23)cc1                 TGI  > 100 µM
5  O=C(c1ccccc1)c1ccc2nc3n(c2c1)C(c1c(Cl)cccc1Cl)SC3 (stereo unspecified)                 TGI  > 100 µM

* * *

Tested on: SF-295 CNS
TEST DETAILS: NCI tumour cell line growth inhibition, 48 h
Below, each of the molecules is paired with its reported TGI value.
PARAMETER MEASURED: TGI

                           structure_smiles  measured_target  parameter_measured   reading
0  CCN(CCNc1ccc(C)c2sc3cc(Cl)ccc3c(=O)c12)CC(C)(C)O       SF-295 CNS                 TGI   4.34 µM
1  Cc1cc(OC(=O)Nc2ccc(Cl)cc2)ccc1C(=S)Nc1ccccc1       SF-295 CNS                 TGI  > 100 µM
2  CC(C)(C)c1cc(C(OCCl)(C(F)(F)F)C(F)(F)F)c2c(c1)C(C(F)(F)F)(C(F)(F)F)OC21c2ccccc2C(=O)c2ccccc21       SF-295 CNS                 TGI  > 100 µM
3              CCOC(=O)COc1cccc2occc(=O)c12       SF-295 CNS                 TGI  > 100 µM
4  O=C(Nc1cccc(-n2cc(-c3ccncc3)c(-c3ccc(O)c(Cl)c3)n2)c1)Nc1ccc(Cl)c(Cl)c1       SF-295 CNS                 TGI   7.27 µM
5  CC1=NN(c2nc(N)nc(/C=C\c3ccccc3)n2)C(C)(C)C1       SF-295 CNS                 TGI   30.5 µM
6   N=C(N)c1ccc(N=Nc2c(O)ccc3cc(O)ccc23)cc1       SF-295 CNS                 TGI  > 100 µM
7    CCOc1ccc(/C=C2/C(=O)N=C(N)N=C2N)cc1OCC       SF-295 CNS                 TGI  > 100 µM
8  CC1=C(C(=O)CC(=O)C(=O)Nc2ccccc2C)Sc2ccccc2N1       SF-295 CNS                 TGI  > 100 µM
9    Cc1cc(/N=C/c2ccc(Cl)cc2)n(-c2ccccc2)n1       SF-295 CNS                 TGI  > 100 µM

* * *

Tested on: SNB-19 CNS
TEST DETAILS: NCI tumour cell line growth inhibition, 48 h; in the data active = GI50 below about 0.43 µM; inactive = the rest
Outcomes: true (1) (active), false (0) (inactive)

                           structure_smiles  class_assignment
0  CN1CCOCCOCCOc2ccccc2NC(=O)c2nc(cnc2N)-c2ccc(cc2)S1(=O)=O         false (0)
1  Cc1cc(-c2ccco2)cc(C)c1/C=C/c1cncc(-c2nn[nH]n2)c1         false (0)
2   CCN(CC)CCCNc1c2ccc(Cl)cc2nc2ccc(OC)cc12          true (1)
3           O=C(Nc1ccc(Br)cc1)Nc1cccc(Br)c1         false (0)
4  O=C(Nc1cccc(-n2cc(-c3ccncc3)c(-c3ccc(O)c(Cl)c3)n2)c1)Nc1ccc(Cl)c(Cl)c1         false (0)
